Field: TGI. Provide a value for each of the compounds that follow.
- System: HL-60(TB) leukemia
- assay-details: NCI tumour cell line growth inhibition, 48 h

The following compounds each have a reported value; give each one's TGI.
1. CN(C)Cc1cc(N=Nc2ccc(Cl)cc2)cc(CN(C)C)c1O
2. O=C1c2ccccc2N2Oc3ccccc3C12c1ccccc1 (stereo unspecified)
3. ON=C(CC(O)(C(F)(F)Cl)C(F)(F)Cl)CC(O)(C(F)(F)Cl)C(F)(F)Cl

[reply]
["4.94 µM", "> 100 µM", "> 10 µM"]

Required: TGI, one value per compound below.
1. CC(=O)Nc1cccc(N=NN(C)C)c1
2. O=CN1CCN(C(=O)c2ccc(Cl)c(Cl)c2)C1=S
3. C[CH2][Sn]([CH2]C)([O]C(=O)c1ccccc1F)[O][Sn]([CH2]C)([CH2]C)[O]C(=O)c1ccccc1F

[reply]
["> 100 µM", "45.7 µM", "> 75.7 µM"]

* * *

Assignment: determine reported GI50 for the given molecules.
- Tested on: SF-268 CNS
- assay-details: NCI tumour cell line growth inhibition, 48 h

molecule=O=C1NOC(c2ccc(O)cc2)(c2ccc(O)cc2)c2ccccc21 value_reported="> 100000 nM"
molecule=Cc1nn(-c2ccc([N+](=O)[O-])cc2)c2ncnc(N/N=C/c3ccccc3O)c12 value_reported="313 nM"
molecule=O=C1c2ccc3c4c(ccc(c24)C(=O)N1CCCNCc1ccccc1Cl)C(=O)N(CCCNCc1ccccc1Cl)C3=O value_reported="477 nM"
molecule=O=[N+]([O-])c1ccc(N=Nc2ccc(O)c3ccccc23)cc1 value_reported="2900 nM"
molecule=C#CCNCCN1C(=O)c2ccc3c4c(ccc(c24)C1=O)C(=O)N(CCNCC#C)C3=O value_reported="3780 nM"
molecule=N#CSCc1ccc(Cl)c(CSC#N)c1 value_reported="298 nM"

Look up GI50 for the entries below, preserving their order.
1. N#Cc1nc2c(S(=O)(=O)c3ccc(Cl)cc3)c(N)n(CCCN3CCOCC3)c2nc1C#N
2. Cc1[nH]c2ccc(F)cc2c1-c1nc2c3cccnc3c3ncccc3c2[nH]1
3. COc1cnc2c(c1)C(=O)c1c-2n(CCCNC2=NCCS2)c(=O)c2cc(Cl)ccc12
4. CCOC(=O)C1CCCCN1C(=O)c1ccc(Nc2cnc3cc(C(F)(F)F)ccc3n2)cc1 (stereo not given)

[reply]
1: 5190 nM; 2: 205 nM; 3: 88 nM; 4: 13200 nM

* * *

I'd be grateful if you could share measured TGI for these entries.
- System: UO-31 renal
- assay-details: NCI tumour cell line growth inhibition, 48 h

Please review the entries below; each comes with its answer.
compound="CC(=O)OC(C)(C)CCC(=O)[C@](C)(O)[C@H]1[C@H](O)C[C@@]2(C)[C@@H]3CCc4c(cc(OC5OC(CO)C(O)C(O)C5O)c(O)c4C)C3(C)C(=O)C[C@]12C (stereo not given in full)" value_reported="> 100 µM"
compound=Cc1[nH]c(=O)nc(NNCc2ccc(Cl)cc2)c1C(=O)Nc1ccc(Cl)cc1 value_reported="> 100 µM"
compound="CCOP(=O)(OCC)OC1c2[nH]cc(C(=O)OCc3ccccc3)c2-c2cc(C(=O)OC)[nH]c2C1OC (stereo not given)" value_reported="> 59.1 µM"
compound=CCOC(=O)/C(O)=C(/C(=O)OC)c1ccc(Cl)cc1 value_reported="> 100 µM"
compound="CCC[CH2][Sn]1([CH2]CCC)[O]C2C(CO)OC(n3ccc(N)nc3=O)C2[O]1 (stereo not given)" value_reported="2.43 µM"
compound=COc1ccc(CC(=O)c2ccc(O)cc2O)cc1 value_reported="> 100 µM"
compound=O=[N+]([O-])c1cc(Cl)cnc1Br value_reported="3.59 µM"
compound=CCc1ccc2c(c1)C(=O)c1c-2n(CCCN=[N+]=[N-])c(=O)c2cc(OC)c(OC)cc12 value_reported="> 100 µM"

Hi team, please reply with TGI for each item in this list.
1. COc1cccc(NC(=O)CC(=O)N2N=C(N3c4ccccc4Sc4ccccc43)CC2c2ccccc2)c1 (stereo not given)
2. BrCC[N+]12CC[N+](CCBr)(CC1)C2
3. O=C(NNC(=O)c1csc(NC(=S)NC2CCCCC2)n1)c1ccccc1
4. CCn1cnnc1-c1nsc2ccccc12
5. O=C(c1ccccc1)N1C(=S)N(c2ccccn2)C(=Nc2ccccc2)C1=Nc1ccccc1
6. O=C1C(SCCO)=C(SCCO)C(=O)N1c1ccc(-c2ccccc2)cc1
7. O=C(N/N=C/c1ccccc1)c1cccc2nc3ccccc3nc12
8. CCOC(=O)c1cccc(NC(=O)CI)c1

[reply]
1: > 100 µM; 2: > 100 µM; 3: 28.3 µM; 4: > 100 µM; 5: 27.1 µM; 6: 2.97 µM; 7: > 100 µM; 8: 0.43 µM

Value sought for every listed compound: TGI.
1. ClCCCCCc1c2nc(c(CCCCCCl)c3ccc([nH]3)c(CCCCCCl)c3ccc([nH]3)c(CCCCCCl)c3nc1C=C3)C=C2
2. COc1ccc(/C=C2\C[C@H]3[C@@H]4CCC5=CC(=O)CC[C@]5(C)[C@H]4CC[C@]3(C)C2=O)cc1OC
3. CCOC(=O)c1cc2c(n1Cc1cc(OC)c(OC)c(OC)c1)-c1oncc1CCC2
4. C=C1CC[C@@H]2[C@](C)(COC(C)=O)[C@H](OC(C)=O)CC[C@@]2(C)[C@@H]1CC(Nc1ccc(S(=O)(=O)Nc2ccc(Cl)nn2)cc1)C1=CCOC1=O (stereo not given in full)
5. C=C1c2ccoc2C[C@H]2[C@H]1CC[C@@]1(O)[C@@](C)(C(=O)OC)CCC[C@]21C
6. COc1cccc(C2c3cc4c(cc3OC(Nc3ccccc3)C2C)OCO4)c1OC (stereo not given)
7. N#CNC(=NCCc1c[nH]c2ccccc12)Oc1ccccc1
8. O=S(=O)(/C=C/CS(=O)(=O)c1ccccc1)c1ccccc1

[reply]
> 100 µM
6.85 µM
> 67.4 µM
2.88 µM
> 100 µM
> 100 µM
> 100 µM
> 100 µM

Each compound below has a recorded value; state its TGI.
1. CSc1nc2c(c(=O)[nH]1)N=C(c1ccccc1)CC(c1ccccc1)N2 (stereo not given)
2. O=C1CC(=O)NC(=NNS(=O)(=O)c2ccc(Cl)cc2)N1
3. NC(=O)c1ccc(-c2nc(-c3ccc4c(c3)OCO4)c(-c3ccccn3)[nH]2)cc1
4. CCc1cccc(C)c1NC(=O)C1=C(C)NC(C)=C(C(=O)Nc2c(C)cccc2CC)C1c1ccc2c(c1)OCO2
5. c1ccc(CSC2(SCc3ccccc3)CCCCC2)cc1

[reply]
1. > 100 µM
2. > 100 µM
3. > 100 µM
4. 28.7 µM
5. > 10 µM

[ask] What reported TGI corresponds to CC(=O)Oc1ccc2c3c1O[C@H]1[C@H](O)CC[C@@]4(O)[C@@H](C2)N(C)CC[C@]314 on UO-31 renal?
[reply] > 100 µM

Data origin, for the record: PubChem BioAssay (NCI)
